Test: Phase I study, 24h continuous infusion every other week: pharmacokinetics
Assay type: in vivo, human
Conditions: human, in vivo, iv; the 3 patients with clear muscular toxicity; read-out: t ½
Procedure: A phase I and pharmacokinetic study of aplidine, given as a 24h continuous infusion every other week in patients with solid tumours and non-Hodgkin lymphoma
Starred links: 1 amine or outer side, 2 acyl side, 3 side chain; linkers in the order of their positions; H or OH if unused. Positions of bridges follow the written chain, without caps; N, C: chain ends. Non-standard residues stand in square brackets, D forms with d. Residues, ends and D or L forms follow the SMILES beside them. *: point of attachment. X1 = CC[C@H](C)[C@@H](N[*:1])[C@@H](O)CC(=O)O[C@H](C(=O)[C@H](C)C(=O)[*:2])C(C)C; NMeY = CN[C@@H](Cc1ccc(O)cc1)C(=O)O; dNMeL = CN[C@H](CC(C)C)C(=O)O; Pyruvoyl = CC(=O)C(=O)*
MEASUREMENT TYPE: half-life

Exam item: Please report the recorded half-life for CC[C@H](C)[C@H]1NC(=O)[C@@H](NC(=O)[C@@H](CC(C)C)N(C)C(=O)[C@@H]2CCCN2C(=O)C(C)=O)[C@@H](C)OC(=O)[C@H](Cc2ccc(OC)cc2)N(C)C(=O)[C@@H]2CCCN2C(=O)[C@H](CC(C)C)NC(=O)[C@@H](C)C(=O)[C@H](C(C)C)OC(=O)C[C@@H]1O [aplidine, Dehydrodidemnin B] (Pyruvoyl-P[dNMeL]T[X1]LP[NMeY](Me); ester 3-C) .
Marked response: > 44 h

* * *

experiment: Phase I study, 24h continuous infusion every other week: pharmacokinetics; format: in vivo, human; settings: human, plasma, iv, preliminary compartmental analysis, first-order 2-compartment model; read-out: median half-life, rapid initial phase (converted)
Starred links: 1 amine or outer side, 2 acyl side, 3 side chain; linkers in the order of their positions; H or OH if unused. Positions of bridges follow the written chain, without caps; N, C: chain ends. Non-standard residues stand in square brackets, D forms with d. Residues, ends and D or L forms follow the SMILES beside them. *: point of attachment. X1 = CC[C@H](C)[C@@H](N[*:1])[C@@H](O)CC(=O)O[C@H](C(=O)[C@H](C)C(=O)[*:2])C(C)C; NMeY = CN[C@@H](Cc1ccc(O)cc1)C(=O)O; dNMeL = CN[C@H](CC(C)C)C(=O)O; Pyruvoyl = CC(=O)C(=O)*
MEASUREMENT TYPE: half-life (min)
One number for each entry, in min.

Exam item: Suppose we examine the compound CC[C@H](C)[C@H]1NC(=O)[C@@H](NC(=O)[C@@H](CC(C)C)N(C)C(=O)[C@@H]2CCCN2C(=O)C(C)=O)[C@@H](C)OC(=O)[C@H](Cc2ccc(OC)cc2)N(C)C(=O)[C@@H]2CCCN2C(=O)[C@H](CC(C)C)NC(=O)[C@@H](C)C(=O)[C@H](C(C)C)OC(=O)C[C@@H]1O [aplidine, Dehydrodidemnin B] (Pyruvoyl-P[dNMeL]T[X1]LP[NMeY](Me); ester 3-C) ; what half-life value has been reported?
Marked response: 38.4

Where do the numbers come from? From patent EP1330254B1.
